Tested on: NCI-H650
Assay: relative viability (nuclei count vs DMSO), 5 days (fraction); higher = more cells survive
Conditions: first compound 0.6325 µM
Measured relative viability accompanies every entry in the list below.
Answer with the value's number alone.

Some entries whose results are on file:
compound | relative viability
CN1CCN(CCOc2cc(OC3CCOCC3)c3c(Nc4c(Cl)ccc5c4OCO5)ncnc3c2)CC1 [Saracatinib] + CC(=O)Nc1cccc(-n2c(=O)n(C3CC3)c(=O)c3c(Nc4ccc(I)cc4F)n(C)c(=O)c(C)c32)c1 [Trametinib] (partner 0.02 µM) | 1.03
Cc1csc(=NC2CCCCC2)n1/N=C/c1ccc(O)c(O)c1O [MIM1] + CC(=O)Nc1cccc(-n2c(=O)n(C3CC3)c(=O)c3c(Nc4ccc(I)cc4F)n(C)c(=O)c(C)c32)c1 [Trametinib] (partner 0.02 µM) | 0.946
Cc1csc(=NC2CCCCC2)n1/N=C/c1ccc(O)c(O)c1O [MIM1] + Nc1nc2[nH]cc(CCc3ccc(C(=O)N[C@@H](CCC(=O)O)C(=O)O)cc3)c2c(=O)[nH]1 [Pemetrexed] (partner 0.2 µM) | 1
Cc1csc(=NC2CCCCC2)n1/N=C/c1ccc(O)c(O)c1O [MIM1] + C[C@]1(O)C[C@@H](c2nc(-c3ccc4ccc(-c5ccccc5)nc4c3)c3c(N)nccn32)C1 [Linsitinib] (partner 1 µM) | 0.843
CN1CCN(CCOc2cc(OC3CCOCC3)c3c(Nc4c(Cl)ccc5c4OCO5)ncnc3c2)CC1 [Saracatinib] + CC(C)C[C@H](NC(=O)[C@H](Cc1ccccc1)NC(=O)c1cnccn1)B(O)O [Bortezomib] (partner 0.002 µM) | 0.947

Need relative viability, item Cc1csc(=NC2CCCCC2)n1/N=C/c1ccc(O)c(O)c1O [MIM1] + CC(C)C[C@H](NC(=O)[C@H](Cc1ccccc1)NC(=O)c1cnccn1)B(O)O [Bortezomib] (partner 0.002 µM)
0.73

Now try CN1CCN(CCOc2cc(OC3CCOCC3)c3c(Nc4c(Cl)ccc5c4OCO5)ncnc3c2)CC1 [Saracatinib] + CC(=O)c1c(C)c2cnc(Nc3ccc(N4CCNCC4)cn3)nc2n(C2CCCC2)c1=O [Palbociclib] (partner 0.5 µM) .
0.33

Now try Cc1csc(=NC2CCCCC2)n1/N=C/c1ccc(O)c(O)c1O [MIM1] + Nc1ncn([C@H]2C[C@H](O)[C@@H](CO)O2)c(=O)n1 [Decitabine] (partner 2 µM) .
0.342

Now try CN1CCN(CCOc2cc(OC3CCOCC3)c3c(Nc4c(Cl)ccc5c4OCO5)ncnc3c2)CC1 [Saracatinib] + C[C@@H](Oc1cc(-c2cnn(C3CCNCC3)c2)cnc1N)c1c(Cl)ccc(F)c1Cl [Crizotinib] (partner 1 µM) .
0.639

Now try CN1CCN(CCOc2cc(OC3CCOCC3)c3c(Nc4c(Cl)ccc5c4OCO5)ncnc3c2)CC1 [Saracatinib] + COc1cc2c(Oc3ccc(NC(=O)C4(C(=O)Nc5ccc(F)cc5)CC4)cc3F)ccnc2cc1OCCCN1CCOCC1 [Foretinib] (partner 0.25 µM) .
1.03

Now try CN1CCN(CCOc2cc(OC3CCOCC3)c3c(Nc4c(Cl)ccc5c4OCO5)ncnc3c2)CC1 [Saracatinib] + NC(=O)Nc1cc(-c2cccc(F)c2)sc1C(=O)N[C@H]1CCCNC1 [AZD7762] (partner 0.2 µM) .
0.98

###

Tested on: HCC-15
Experiment: relative viability (nuclei count vs DMSO), 5 days (fraction); higher = more cells survive
Details: first compound 0.006325 µM
Measured relative viability accompanies every entry in the list below.
Answer with the value's number alone.

Some entries whose results are on file:
compound | measured on | parameter measured | meas value
CCNC(=O)c1noc(-c2cc(C(C)C)c(O)cc2O)c1-c1ccc(CN2CCOCC2)cc1 [Luminespib] + Nc1ncn([C@H]2C[C@H](O)[C@@H](CO)O2)c(=O)n1 [Decitabine] (partner 2 µM) | HCC-15 | relative viability | 0.565
CCNC(=O)c1noc(-c2cc(C(C)C)c(O)cc2O)c1-c1ccc(CN2CCOCC2)cc1 [Luminespib] + CC(=O)Nc1cccc(-n2c(=O)n(C3CC3)c(=O)c3c(Nc4ccc(I)cc4F)n(C)c(=O)c(C)c32)c1 [Trametinib] (partner 0.02 µM) | HCC-15 | relative viability | 0.364
CCNC(=O)c1noc(-c2cc(C(C)C)c(O)cc2O)c1-c1ccc(CN2CCOCC2)cc1 [Luminespib] + C[C@]1(O)C[C@@H](c2nc(-c3ccc4ccc(-c5ccccc5)nc4c3)c3c(N)nccn32)C1 [Linsitinib] (partner 1 µM) | HCC-15 | relative viability | 0.873

Need relative viability, item CCNC(=O)c1noc(-c2cc(C(C)C)c(O)cc2O)c1-c1ccc(CN2CCOCC2)cc1 [Luminespib] + Cc1nc(NC(=O)N2CCC[C@H]2C(N)=O)sc1-c1ccnc(C(C)(C)C(F)(F)F)c1 [Alpelisib] (partner 2 µM)
0.852

Now try CCNC(=O)c1noc(-c2cc(C(C)C)c(O)cc2O)c1-c1ccc(CN2CCOCC2)cc1 [Luminespib] + CC(C)C[C@H](NC(=O)[C@H](Cc1ccccc1)NC(=O)c1cnccn1)B(O)O [Bortezomib] (partner 0.002 µM) .
0.906

Now try CCNC(=O)c1noc(-c2cc(C(C)C)c(O)cc2O)c1-c1ccc(CN2CCOCC2)cc1 [Luminespib] + Cc1cc(Nc2cc(N3CCN(C)CC3)nc(Sc3ccc(NC(=O)C4CC4)cc3)n2)n[nH]1 [Tozasertib] (partner 0.1 µM) .
0.441

###

Tested on: COR-L23
Assay: relative viability (nuclei count vs DMSO), 5 days (fraction); higher = more cells survive
Settings: first compound 0.003162 µM
Measured relative viability accompanies every entry in the list below.
Answer with the value's number alone.

compound | measured on | meas value
Cc1cn(-c2cc(NC(=O)c3ccc(C)c(Nc4nccc(-c5cccnc5)n4)c3)cc(C(F)(F)F)c2)cn1 [Nilotinib] + CC1(C)CCC(c2ccc(Cl)cc2)=C(CN2CCN(c3ccc(C(=O)NS(=O)(=O)c4ccc(N[C@H](CCN5CCOCC5)CSc5ccccc5)c(S(=O)(=O)C(F)(F)F)c4)cc3)CC2)C1 [Navitoclax] (partner 0.5 µM) | COR-L23 | 1.17

Can you look up relative viability on COR-L23 for Cc1cn(-c2cc(NC(=O)c3ccc(C)c(Nc4nccc(-c5cccnc5)n4)c3)cc(C(F)(F)F)c2)cn1 [Nilotinib] + O=C(CCCCCCC(=O)Nc1ccccc1)NO [Vorinostat] (partner 1 µM) ?
0.347

###

Test system: PC-3 [JPC-3]
Experiment: relative viability (nuclei count vs DMSO), 5 days (fraction); higher = more cells survive
Settings: first compound 0.2 µM
Checkbox rule: relative viability lower than 0.4 = Fulfilled; relative viability not lower than 0.4 = Not fulfilled.

These solved cases illustrate the format of a correct answer.
molecule | group
CCNC(=O)c1noc(-c2cc(C(C)C)c(O)cc2O)c1-c1ccc(CN2CCOCC2)cc1 [Luminespib] + Nc1nc2[nH]cc(CCc3ccc(C(=O)N[C@@H](CCC(=O)O)C(=O)O)cc3)c2c(=O)[nH]1 [Pemetrexed] (partner 0.2 µM) | Fulfilled
CN1CCN(CCOc2cc(OC3CCOCC3)c3c(Nc4c(Cl)ccc5c4OCO5)ncnc3c2)CC1 [Saracatinib] + CC(=O)Nc1cccc(-n2c(=O)n(C3CC3)c(=O)c3c(Nc4ccc(I)cc4F)n(C)c(=O)c(C)c32)c1 [Trametinib] (partner 0.02 µM) | Not fulfilled
CN1CCN(CCOc2cc(OC3CCOCC3)c3c(Nc4c(Cl)ccc5c4OCO5)ncnc3c2)CC1 [Saracatinib] + CCNC(=O)c1noc(-c2cc(C(C)C)c(O)cc2O)c1-c1ccc(CN2CCOCC2)cc1 [Luminespib] (partner 0.01 µM) | Not fulfilled
CN1CCN(CCOc2cc(OC3CCOCC3)c3c(Nc4c(Cl)ccc5c4OCO5)ncnc3c2)CC1 [Saracatinib] + NC(=O)Nc1cc(-c2cccc(F)c2)sc1C(=O)N[C@H]1CCCNC1 [AZD7762] (partner 0.2 µM) | Not fulfilled
CCNC(=O)c1noc(-c2cc(C(C)C)c(O)cc2O)c1-c1ccc(CN2CCOCC2)cc1 [Luminespib] + COc1cccc2cc(-c3nc([C@H]4CC[C@H](C(=O)O)CC4)n4ncnc(N)c34)[nH]c12 [OSI-027] (partner 0.5 µM) | Fulfilled
CCNC(=O)c1noc(-c2cc(C(C)C)c(O)cc2O)c1-c1ccc(CN2CCOCC2)cc1 [Luminespib] + Cc1nc(NC(=O)N2CCC[C@H]2C(N)=O)sc1-c1ccnc(C(C)(C)C(F)(F)F)c1 [Alpelisib] (partner 2 µM) | Not fulfilled
CN1CCN(CCOc2cc(OC3CCOCC3)c3c(Nc4c(Cl)ccc5c4OCO5)ncnc3c2)CC1 [Saracatinib] + Cc1nc(Nc2ncc(C(=O)Nc3c(C)cccc3Cl)s2)cc(N2CCN(CCO)CC2)n1 [Dasatinib] (partner 0.075 µM) | Not fulfilled
CN1CCN(CCOc2cc(OC3CCOCC3)c3c(Nc4c(Cl)ccc5c4OCO5)ncnc3c2)CC1 [Saracatinib] + N=C(N)NC(=N)NCCc1ccccc1 [Phenformin] (partner 250 µM) | Not fulfilled

From here, focus on the item given below.
# check: relative viability < 0.4 for Cc1csc(=NC2CCCCC2)n1/N=C/c1ccc(O)c(O)c1O [MIM1] + Cc1cc(Nc2cc(N3CCN(C)CC3)nc(Sc3ccc(NC(=O)C4CC4)cc3)n2)n[nH]1 [Tozasertib] (partner 0.1 µM)
Not fulfilled
